Recorded pKd, one value per entry.
- system-tested: T1, Recombinant MBP-mutCALR Type 1 fusion protein (human)
- T1 construct: custom made at Cepter; also called recombinant mutCALR protein
- assay-comment: SPR, IgG captured, 1:1 fit, Exp. 2
// pKd is dimensionless: -log10 of concentration (M)

Use the examples below as a reference point.
anti-mutCALR antibody clone 179 (antibody, human IgG1, lambda, N297A, V domains shown, human IgG1 N297A variant of clone 17) VH: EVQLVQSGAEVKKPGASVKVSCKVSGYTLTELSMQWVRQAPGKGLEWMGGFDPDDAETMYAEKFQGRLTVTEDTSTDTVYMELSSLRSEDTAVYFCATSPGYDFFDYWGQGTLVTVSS VL: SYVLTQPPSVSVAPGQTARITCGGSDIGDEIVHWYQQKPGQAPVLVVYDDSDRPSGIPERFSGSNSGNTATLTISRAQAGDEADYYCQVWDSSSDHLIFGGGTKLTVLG
9.34
anti-mutCALR antibody clone 175 (antibody, human IgG1, lambda, N297A, V domains shown, human IgG1 N297A variant of clone 17) VH: EVQLVQSGAEVKKPGASVKVSCKVSGYTLTELSMQWVRQAPGKGLEWMGGFDPDDGETMYAEKFQGRLTVTEDTSTDTVYMELSSLRSEDTAVYFCATSPGYDFFDYWGQGTLVTVSS VL: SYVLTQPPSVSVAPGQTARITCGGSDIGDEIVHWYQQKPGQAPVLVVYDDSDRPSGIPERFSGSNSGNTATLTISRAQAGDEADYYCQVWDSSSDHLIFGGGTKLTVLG
8.86
anti-mutCALR antibody clone 188 (antibody, human IgG1, lambda, N297A, V domains shown, human IgG1 N297A variant of clone 17) VH: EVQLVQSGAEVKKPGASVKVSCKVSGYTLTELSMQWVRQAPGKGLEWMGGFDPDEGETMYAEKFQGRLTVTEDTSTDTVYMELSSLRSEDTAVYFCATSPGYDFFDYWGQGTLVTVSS VL: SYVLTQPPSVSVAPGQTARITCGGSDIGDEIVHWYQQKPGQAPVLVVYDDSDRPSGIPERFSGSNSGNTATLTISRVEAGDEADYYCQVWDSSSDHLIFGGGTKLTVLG
8.78
anti-mutCALR antibody clone 75 (antibody, human IgG1, lambda, N297A, V domains shown, human IgG1 N297A variant of clone 6) VH: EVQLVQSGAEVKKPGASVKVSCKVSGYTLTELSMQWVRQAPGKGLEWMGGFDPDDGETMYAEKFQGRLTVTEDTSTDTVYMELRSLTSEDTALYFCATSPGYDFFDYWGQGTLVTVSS VL: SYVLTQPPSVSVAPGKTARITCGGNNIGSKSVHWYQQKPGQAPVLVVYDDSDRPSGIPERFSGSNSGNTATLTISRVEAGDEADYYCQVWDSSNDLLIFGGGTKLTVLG
9.20

Turning now to a further record.
Please report pKd for the following binder: anti-mutCALR antibody clone 141 (antibody, human IgG1, lambda, N297A, V domains shown, human IgG1 N297A variant of clone 15) VH: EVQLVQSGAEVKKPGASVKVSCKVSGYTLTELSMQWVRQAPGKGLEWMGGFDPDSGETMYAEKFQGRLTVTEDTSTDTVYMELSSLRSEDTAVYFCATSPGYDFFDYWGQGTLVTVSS VL: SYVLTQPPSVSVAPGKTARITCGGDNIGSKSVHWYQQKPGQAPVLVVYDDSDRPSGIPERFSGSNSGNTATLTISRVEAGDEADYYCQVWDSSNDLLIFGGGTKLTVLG
8.35

Values were extracted from patent US20230272055A1.
